attribute-measured: pIC50
Convention used: pIC50 is expressed as -log10 of the molar concentration.

Record lookup: for AChE (Electrophorus electricus), what pIC50 belongs to C/C=C\c1ccc(O)c(OC)c1 ?
2.58

====

attribute-measured: pIC50
Convention used: pIC50 is expressed as -log10 of the molar concentration.

Record lookup: for UniProt:P81908, what pIC50 belongs to C/C=C\c1ccc(O)c(OC)c1 ?
2.77
